# target of assay: GST-PIST PDZ domain 1 (Mus musculus (Mouse)), Q8BH60
# test details: G assay titration, PDZ 0.5 ug/ml
assay metric: pKd
pKd is a log-scale quantity: -log10 of the concentration expressed in molar.

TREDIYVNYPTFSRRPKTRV (modifications not checked) [DNAM-1] yielded pKd of 5.60
